# Test system: NF-κB
# Experimental Protocol: EMSA of NF-κB DNA-binding activity in human keratinocytes
# Format: cell-based
# Particulars: Keratinocyte, read-out: NF-κB
Assay Metric: IC50 (µM)
Give the value in µM but do not write µM after it.

According to the records, this compound COC(=O)[C@H](CSC1CC(=O)/C(=C/c2ccccc2)CC1O[Si](C)(C)C(C)(C)C)NC(=O)OC(C)(C)C (stereo partly shown) displays IC50 of 19

---

# Tested on: NF-κB
# Experimental Protocol: EMSA of NF-κB DNA-binding activity in human endothelial cells
# Assay type: cell-based
# Particulars: Endothelial cell
Assay Metric: IC50
I'd appreciate it if you included the unit after the number.

Param item: COC(=O)[C@H](CSC1CC(=O)/C(=C/c2ccccc2)CC1O[Si](C)(C)C(C)(C)C)NC(=O)OC(C)(C)C (stereo partly shown) ; param system: NF-κB; output IC50: 5 µM

Values compiled from patent US8367735B2.
